# maps each entry to its inhibition
target: Phosphatidylinositol 4,5-bisphosphate 3-kinase catalytic subunit alpha isoform (Homo sapiens) (UniProt P42336); experiment: Inhibition PI3Kalpha (unknown origin) at 100 nM relative to control
Sequence (P42336 whole entry, canonical isoform): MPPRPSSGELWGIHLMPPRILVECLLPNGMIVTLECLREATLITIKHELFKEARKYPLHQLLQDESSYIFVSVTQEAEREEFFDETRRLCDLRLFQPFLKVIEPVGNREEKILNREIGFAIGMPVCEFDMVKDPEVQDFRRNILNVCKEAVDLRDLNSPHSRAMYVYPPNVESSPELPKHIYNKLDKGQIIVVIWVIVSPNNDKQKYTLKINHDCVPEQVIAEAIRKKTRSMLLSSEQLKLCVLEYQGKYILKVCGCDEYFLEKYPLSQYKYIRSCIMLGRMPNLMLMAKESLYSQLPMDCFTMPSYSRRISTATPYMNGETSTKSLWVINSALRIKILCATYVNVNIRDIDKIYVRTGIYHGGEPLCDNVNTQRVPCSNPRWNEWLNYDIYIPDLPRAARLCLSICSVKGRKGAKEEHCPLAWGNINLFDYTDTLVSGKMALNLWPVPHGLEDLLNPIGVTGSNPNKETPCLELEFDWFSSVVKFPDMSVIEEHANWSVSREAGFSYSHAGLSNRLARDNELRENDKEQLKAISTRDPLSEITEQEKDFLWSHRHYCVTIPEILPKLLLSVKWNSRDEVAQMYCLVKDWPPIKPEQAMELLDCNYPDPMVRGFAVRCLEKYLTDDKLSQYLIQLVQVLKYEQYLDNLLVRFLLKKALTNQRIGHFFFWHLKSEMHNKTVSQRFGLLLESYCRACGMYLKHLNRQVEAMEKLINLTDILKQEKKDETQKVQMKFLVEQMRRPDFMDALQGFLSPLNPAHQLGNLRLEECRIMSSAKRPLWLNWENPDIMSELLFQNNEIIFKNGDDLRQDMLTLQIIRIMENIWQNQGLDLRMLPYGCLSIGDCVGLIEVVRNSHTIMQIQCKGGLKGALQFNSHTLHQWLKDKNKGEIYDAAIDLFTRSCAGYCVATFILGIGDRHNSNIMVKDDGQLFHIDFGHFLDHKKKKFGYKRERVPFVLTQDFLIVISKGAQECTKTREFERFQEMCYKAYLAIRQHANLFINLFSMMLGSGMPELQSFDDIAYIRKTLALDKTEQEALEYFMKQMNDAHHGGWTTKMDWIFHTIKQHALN
endpoint.label: inhibition

molecule	value.reported
COc1ccccc1-c1ccnc(Nc2ccc3c(c2)N(C(C)C)[C@H](C)C(=O)N3C)n1	-2.1%
CC(C)N1c2cc(Nc3cccc(-c4ccccc4)c3)ccc2N(C)C(=O)[C@H]1C	-4.8%
CC(C)N1c2cc(Nc3cccc(-c4cccc(C#N)c4)c3)ccc2N(C)C(=O)[C@H]1C	-0.1%
CC(C)N1c2cc(Nc3cccc(-c4ccncc4)c3)ccc2N(C)C(=O)[C@H]1C	-4.1%
CC(C)N1c2cc(Nc3nccc(-c4cccc(C#N)c4)n3)ccc2N(C)C(=O)[C@H]1C	14.1%
COc1ccccc1-c1cccc(Nc2ccc3c(c2)N(C(C)C)[C@H](C)C(=O)N3C)c1	-2.6%
CC(C)N1c2cc(Nc3nccc(-c4ccccc4)n3)ccc2N(C)C(=O)[C@H]1C	0%
CC(C)N1c2cc(Nc3nccc(-c4ccncc4)n3)ccc2N(C)C(=O)[C@H]1C	37.5%

* * *

target: Cyclin-dependent kinase 9 (Homo sapiens)
Sequence (P50750 whole entry): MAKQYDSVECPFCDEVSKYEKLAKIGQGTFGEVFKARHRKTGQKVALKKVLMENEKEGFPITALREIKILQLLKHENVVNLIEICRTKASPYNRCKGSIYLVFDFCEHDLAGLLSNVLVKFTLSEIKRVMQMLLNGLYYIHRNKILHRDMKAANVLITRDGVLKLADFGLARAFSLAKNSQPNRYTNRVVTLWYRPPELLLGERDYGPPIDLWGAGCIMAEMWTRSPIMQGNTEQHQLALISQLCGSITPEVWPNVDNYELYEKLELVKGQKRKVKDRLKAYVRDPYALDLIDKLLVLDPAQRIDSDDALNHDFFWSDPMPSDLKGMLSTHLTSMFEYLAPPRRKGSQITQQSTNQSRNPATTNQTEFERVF
pIC50: −log10 of the molar value.
Use 7 as the dividing line for pIC50, with the line itself on the true side and lower values as false.

molecule	answer.label
CC(C)N1c2cc(Nc3ncc(Cl)c(-c4cncc5ccccc45)n3)ccc2N(C)C(=O)[C@H]1C	true
Cc1ccc(-c2ccnc(Nc3ccc4c(c3)N(C(C)C)[C@H](C)C(=O)N4C)n2)cc1	false
CNc1cccc(-c2ccnc(Nc3ccc4c(c3)N(C(C)C)[C@H](C)C(=O)N4C)n2)c1	true
CC(C)N1c2cc(Nc3nccc(-c4cncc5ccccc45)n3)ccc2N(C)C(=O)[C@H]1C	true
CC(C)N1c2cc(Nc3nccc(-c4cccc(NC5CCCCC5)c4)n3)ccc2N(C)C(=O)[C@H]1C	false
CC(C)N1c2cc(Nc3nccc(-c4cccc5[nH]ccc45)n3)ccc2N(C)C(=O)[C@H]1C	true
COc1ccc(-c2ccnc(Nc3ccc4c(c3)N(C(C)C)[C@H](C)C(=O)N4C)n2)cc1	true
CCNc1cccc(-c2ccnc(Nc3ccc4c(c3)N(C(C)C)[C@H](C)C(=O)N4C)n2)c1	true
Cc1cc(F)ccc1-c1ccnc(Nc2ccc3c(c2)N(C(C)C)[C@H](C)C(=O)N3C)n1	false
CC(C)N1c2cc(Nc3nccc(-c4ccccc4N)n3)ccc2N(C)C(=O)[C@H]1C	true
CC(C)N1c2cc(Nc3nccc(-c4cccc(N)c4)n3)ccc2N(C)C(=O)[C@H]1C	true
Cc1c(N)cccc1-c1ccnc(Nc2ccc3c(c2)N(C(C)C)[C@H](C)C(=O)N3C)n1	false

* * *

biological target: Cyclin-dependent kinase 9 (Homo sapiens); experiment: Inhibition of human CDK9 by mobility shift assay relative to control
pIC50: −log10 of the molar value.
# maps each entry to its pIC50

molecule	pIC50
Cc1cnc(Nc2ccc3c(c2)N(C(C)C)[C@H](C)C(=O)N3C)nc1-c1cncc2ccccc12	7.00
CC(C)N1c2cc(Nc3nccc(-c4cccc5c4CCCN5)n3)ccc2N(C)C(=O)[C@H]1C	7.17
Cc1ccc(N)cc1-c1ccnc(Nc2ccc3c(c2)N(C(C)C)[C@H](C)C(=O)N3C)n1	6.82
CC(C)N1c2cc(Nc3nccc(-c4cccc5nn(C)cc45)n3)ccc2N(C)C(=O)[C@H]1C	6.96
COc1cccc(-c2ccnc(Nc3ccc4c(c3)N(C(C)C)[C@H](C)C(=O)N4C)n2)c1	6.90

Values were extracted from ChEMBL document CHEMBL4725348.
